Sourced from patent US20150291598A1

- Test system: P. falciparum (NF54 or 3D7 strain)
- assay notes: Assay for P. falciparum proliferation in infected human blood cells (SYBR Green)
- Format: cell-based, Plasmodium falciparum
- details: Plasmodium falciparum, Erythrocyte, 72 h, NF54 or 3D7 infected human erythrocytes, 72 hours; read-out: EC50 (nM), inhibitory efficacy in delaying P. falciparum proliferation in infected human blood cells
hey, just use y if measured EC50 is less than 500 nM, otherwise n

Please indicate whether the reported EC50 of COc1ccc(-c2cnc3cnc(C(=O)N(C)c4ccc(Cl)cc4Cl)cn23)cc1 [Compound 41] is strictly below 500 nM.
y

Please indicate whether the reported EC50 of COC(=O)Nc1ccc(-c2cnc3cnc(CN(C)c4ccc(C)cn4)cn23)cc1 [Compound 318] is strictly below 500 nM.
n

Please indicate whether the reported EC50 of CN(C(=O)c1cn2c(-c3ccc(C(F)(F)F)cc3)cnc2cn1)c1cccnc1F [Compound 54] is strictly below 500 nM.
n

Please indicate whether the reported EC50 of COCCN(C(=O)c1cn2c(-c3ccc(C(F)(F)F)cc3)cnc2cn1)c1ccc(C#N)cc1 [Compound 238] is strictly below 500 nM.
y

Please indicate whether the reported EC50 of COc1ccc(-c2cnc3cnc(C(=O)N(C)c4ccc(Cl)nc4)cn23)c(F)c1 [Compound 280] is strictly below 500 nM.
n

Please indicate whether the reported EC50 of CN(C)c1cccc(-c2cnc3cnc(C(=O)N(C)c4ccc(C#N)cc4)cn23)c1 [Compound 438] is strictly below 500 nM.
n

Please indicate whether the reported EC50 of COC(C)c1ccc(-c2cnc3cnc(C(=O)N(C)c4ccc(C#N)cc4)cn23)cc1 (centres unmarked) [Compound 130] is strictly below 500 nM.
y

---

- Test system: P. falciparum (NF54 or 3D7 strain)
- assay notes: Assay for P. falciparum proliferation in infected human blood cells (SYBR Green)
- Assay type: cell-based, Plasmodium falciparum
- details: Plasmodium falciparum, Erythrocyte, 72 h, NF54 or 3D7 infected human erythrocytes, 72 hours; read-out: EC50 (nM), inhibitory efficacy in delaying P. falciparum proliferation in infected human blood cells
observation type: EC50

// EC50 value for CN(C(=O)c1cn2c(-c3ccc(C(F)(F)F)cc3)cnc2cn1)c1ccc(-n2ccc(C(F)(F)F)n2)cc1 : > 9760 nM

// EC50 value for CN(C(=O)c1cn2c(-c3ccc4cn[nH]c4c3)cnc2cn1)c1ccc(C#N)cc1 : 2690 nM

// EC50 value for CN(C(=O)c1cn2c(-c3ccc(C(F)(F)F)cc3)cnc2cn1)c1cc(C(F)(F)F)ccn1 : 4690 nM

// EC50 value for CN(C)c1ccc(-c2cnc3cnc(CN(C)c4ccc(C#N)cc4)cn23)cc1 : 176 nM

---

- System: P. falciparum (NF54 or 3D7 strain)
- assay notes: Assay for P. falciparum proliferation in infected human blood cells (SYBR Green)
- Format: cell-based, Plasmodium falciparum
- details: Plasmodium falciparum, Erythrocyte, 72 h, NF54 or 3D7 infected human erythrocytes, 72 hours; read-out: EC50 (nM), inhibitory efficacy in delaying P. falciparum proliferation in infected human blood cells
Give measured EC50 for each item. Keep answers brief.

// EC50 value for CCn1nccc1N(C)C(=O)c1cn2c(-c3ccc(C(F)(F)F)cc3)cnc2cn1 : 1070 nM

// EC50 value for COc1cccc(-c2cnc3cnc(C(=O)N(C)c4ccc(C#N)cc4)cn23)c1 : 5100 nM

// EC50 value for CNc1nnc(-c2ccc(-c3cnc4cnc(C(=O)N(C)c5ccc(Cl)cc5)cn34)cc2)o1 : 9 nM

// EC50 value for CN(C(=O)c1cn2c(-c3ccc(OCCN)cc3)cnc2cn1)c1ccc(C#N)cc1 : > 10000 nM

// EC50 value for CN(Cc1cn2c(-c3ccc(-c4ccn[nH]4)cc3)cnc2cn1)c1ccc(Cl)cc1 : 238 nM

// EC50 value for CN(C(=O)c1cn2c(-c3ccc(-c4nnco4)cc3)cnc2cn1)c1ccc(Cl)nc1 : > 10000 nM

// EC50 value for Cc1ccc(N(C)C(=O)c2cn3c(-c4ccc(OCCN)cc4)cnc3cn2)nc1 : > 9340 nM

// EC50 value for CN(C(=O)c1cn2c(-c3ccc(NC(=O)[C@@H](N)C4CCCCC4)cc3)cnc2cn1)c1ccc(C#N)cc1 : 137 nM
